Just for reference, paper PMC10668032 is where these values come from.

Target: SIX1-Q177R homeodomain (human, UniProt Q15475 108-198, Q177R)
Sequence: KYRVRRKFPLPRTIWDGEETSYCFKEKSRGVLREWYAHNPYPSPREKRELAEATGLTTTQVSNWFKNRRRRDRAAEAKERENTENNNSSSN
Assay: universal protein binding microarray; Universal all-10-mer PBM (8x60K, AMADID 030236), 300 nM GST-tagged protein, Alexa Fluor 488 anti-GST; buffer, salt, pH and temperature not stated (as in Berger); high values mean tight binding
Details: protein: ivt; tags: N-terminal GST; dsDNA, one strand shown
The full ranking holds about 33,000 sequences; the median of “e-score” is about -0.05, and the highest 2% start at about 0.38. The sample holds the highest values, similar sequences and a random draw of the others, so the mix is not that of the screen.
Metric name: binding signal (E-score)
Write the number in E-score without appending the unit.

// query Which binding signal value is on record for TGGGTACA ?
// result 0.29

// query Which binding signal value is on record for GCTGTGTA ?
// result 0.223

// query Which binding signal value is on record for ACTCCCGC ?
// result 0.253

// query Which binding signal value is on record for ACGGTGCT ?
// result 0.179

// query Which binding signal value is on record for CAATGGTG ?
// result 0.299

// query Which binding signal value is on record for ACTCCCGA ?
// result 0.172

// query Which binding signal value is on record for CCGGTATA ?
// result 0.183
